Molecular target: DNA gyrase subunit B (GyrB) (Mycobacteroides abscessus, UniProt B1ME45)
Construct: recombinant M. abscessus ATCC 19977 DNA gyrase (A2B2 heterotetramer); with DNA gyrase subunit A (GyrA)
Sequence (B1ME45 entry or part of it): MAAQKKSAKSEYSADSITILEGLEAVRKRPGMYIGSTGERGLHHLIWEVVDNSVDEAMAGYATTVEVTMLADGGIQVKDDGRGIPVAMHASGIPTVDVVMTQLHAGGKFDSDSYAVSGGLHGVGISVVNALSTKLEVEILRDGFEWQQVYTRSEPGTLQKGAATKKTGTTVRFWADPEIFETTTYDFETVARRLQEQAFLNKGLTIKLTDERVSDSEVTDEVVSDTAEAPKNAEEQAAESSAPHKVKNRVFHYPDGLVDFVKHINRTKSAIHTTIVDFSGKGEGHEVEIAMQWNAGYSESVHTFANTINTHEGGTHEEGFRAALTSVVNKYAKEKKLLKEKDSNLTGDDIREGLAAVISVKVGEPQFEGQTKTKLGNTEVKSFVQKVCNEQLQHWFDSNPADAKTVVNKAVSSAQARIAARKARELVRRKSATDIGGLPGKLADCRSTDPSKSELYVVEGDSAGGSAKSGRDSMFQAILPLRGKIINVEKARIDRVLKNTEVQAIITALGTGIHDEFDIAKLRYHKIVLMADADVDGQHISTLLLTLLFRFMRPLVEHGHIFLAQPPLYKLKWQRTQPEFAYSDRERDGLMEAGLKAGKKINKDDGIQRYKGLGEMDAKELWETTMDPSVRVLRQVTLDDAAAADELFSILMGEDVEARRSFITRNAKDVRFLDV
Sequence (B1ME58 entry or part of it, further chain): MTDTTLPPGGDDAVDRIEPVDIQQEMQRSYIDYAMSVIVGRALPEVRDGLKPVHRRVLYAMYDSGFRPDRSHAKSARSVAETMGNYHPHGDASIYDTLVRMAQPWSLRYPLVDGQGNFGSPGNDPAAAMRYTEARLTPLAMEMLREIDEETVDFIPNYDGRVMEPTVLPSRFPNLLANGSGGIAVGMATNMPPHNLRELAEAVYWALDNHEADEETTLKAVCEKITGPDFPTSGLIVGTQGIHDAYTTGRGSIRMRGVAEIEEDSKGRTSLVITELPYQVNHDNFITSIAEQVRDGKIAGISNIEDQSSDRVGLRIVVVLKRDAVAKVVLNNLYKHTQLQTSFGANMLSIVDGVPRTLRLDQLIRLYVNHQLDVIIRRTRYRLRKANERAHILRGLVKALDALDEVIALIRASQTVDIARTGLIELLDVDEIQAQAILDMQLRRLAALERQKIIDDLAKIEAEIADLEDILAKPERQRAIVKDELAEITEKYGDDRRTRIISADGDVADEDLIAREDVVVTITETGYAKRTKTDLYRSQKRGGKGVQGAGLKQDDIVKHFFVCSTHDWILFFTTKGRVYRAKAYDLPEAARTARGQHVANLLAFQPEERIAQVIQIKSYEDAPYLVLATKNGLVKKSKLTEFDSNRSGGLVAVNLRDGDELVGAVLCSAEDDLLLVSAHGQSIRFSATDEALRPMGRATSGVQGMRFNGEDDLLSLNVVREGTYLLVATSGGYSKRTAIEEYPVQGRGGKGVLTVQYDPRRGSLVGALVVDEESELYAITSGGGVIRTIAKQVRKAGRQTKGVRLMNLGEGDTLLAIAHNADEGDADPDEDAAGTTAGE
Assay: DNA supercoiling inhibition assay (relaxed pBR322, agarose gel)
Observation type: IC50 (µM)
Give your result in µM as a bare value.

Data request, read-out IC50, for CCNC(=O)Nc1nc2cc(-c3cnc(C(C)(C)O)nc3)c(F)c([C@H]3CCCO3)c2[nH]1
1
